target system: C-CBL (residues 46-435) (Homo sapiens)
Construct: Purified CBL-B (residues 36-427) and C-CBL (residues 46-435) proteins from baculovirus-infected insect cells; made in house; host or cells: baculovirus-infected insect cells
Sequence (P22681 46-435): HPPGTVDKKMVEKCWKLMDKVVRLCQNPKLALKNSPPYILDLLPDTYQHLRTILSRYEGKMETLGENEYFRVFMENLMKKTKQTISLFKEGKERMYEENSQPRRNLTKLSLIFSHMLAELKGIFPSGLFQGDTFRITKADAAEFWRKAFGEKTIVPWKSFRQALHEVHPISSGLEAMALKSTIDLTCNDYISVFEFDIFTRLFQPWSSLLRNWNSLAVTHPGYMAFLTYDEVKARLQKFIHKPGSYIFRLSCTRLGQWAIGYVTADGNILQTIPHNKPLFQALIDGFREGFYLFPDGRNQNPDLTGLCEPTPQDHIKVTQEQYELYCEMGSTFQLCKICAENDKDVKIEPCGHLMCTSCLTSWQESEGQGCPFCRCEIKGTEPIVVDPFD
assay: Ligand Displacement Assay (LDA), HTRF competitive binding against BODIPY-labeled fluorescent tracer, C-CBL
experimental conditions: geometric mean of the number of tests, read-out: C-CBL Ki (nM) GMean
reported metric: Ki (nM)
Just the number please, in nM, no unit attached.

Example results:
compound | reported metric | unit tag | reported value
CNc1nc(C(F)(F)F)cc2c(-c3cccc(C4(Cc5nncn5C)COC4)c3)n[nH]c12 [Example J8] | Ki | nM | 251
Cn1cnnc1[C@@H](c1cccc(-c2n[nH]c3c(CN[C@H]4CCOC4)nc(C(F)(F)F)cc23)c1)C1CCC1 [Example D1] | Ki | nM | 210
CC(CN)c1nc(C(F)(F)F)cc2c(-c3cccc(C4(Cc5nncn5C)COC4)c3)n[nH]c12 (single isomer, unassigned) [Example K6] | Ki | nM | 78.6

From here, focus on the item given below.
Fill in the blank: the reported Ki of CC(C)NCc1nc(C(F)(F)F)cc2c(-c3cccc([C@H](c4nncn4C)C4CCC4)c3)n[nH]c12 [Example D80] is ____.
181

###

The compounds listed here are annotated with their EC50.
target system: CBL-B (Homo sapiens)
Construct: endogenous in cells; host or cells: Jurkat HiBit-IL2 reporter cells, C-CBL knocked out by CRISPR
assay: Jurkat HiBit-IL2 assay (c-CBL KO), reporter cell line expressing CBL-B only
Type: cell-based
experimental conditions: c-CBL KO (CBL-B only), anti-CD3/anti-CD28 stimulation 4 hours, geometric mean, Table 16a, read-out: C-CBL KO EC50 (nM) GMean
Answer as a quantity: numeral, then unit.

Example results:
compound | target system | EC50
CC(C)NC(C)c1nc(C(F)(F)F)cc2c(-c3cccc([C@H](c4nncn4C)C4CCC4)c3)n[nH]c12 (single isomer, unassigned) [Example C35] | CBL-B (Homo sapiens) | 15 nM
Cn1cnnc1[C@@H](c1cccc(-c2n[nH]c3c(CN[C@H]4CCOC4)nc(C(F)(F)F)cc23)c1)C1CCC1 [Example D1] | CBL-B (Homo sapiens) | 276 nM
C[C@H](N[C@H]1C[C@@H](O)C1)c1nc(C(F)(F)F)cc2c(-c3cccc([C@H](c4nncn4C)C4CCC4)c3)n[nH]c12 (single isomer, unassigned) | CBL-B (Homo sapiens) | 20 nM
CC(NCCO)c1nc(C(F)(F)F)cc2c(-c3cccc([C@H](c4nncn4C)C4CCC4)c3)n[nH]c12 (single isomer, unassigned) [Example C41] | CBL-B (Homo sapiens) | 42 nM
C[C@H](N[C@@H]1CC[C@H](O)C1)c1nc(C(F)(F)F)cc2c(-c3cccc([C@H](c4nncn4C)C4CCC4)c3)n[nH]c12 | CBL-B (Homo sapiens) | 8 nM
Cn1cnnc1[C@@H](c1cccc(-c2n[nH]c3c(CNC4CCCC4)nc(C(F)(F)F)cc23)c1)C1CCC1 | CBL-B (Homo sapiens) | 72 nM
C[C@H](c1nc(C(F)(F)F)cc2c(-c3cccc(C4(Cc5nncn5C)COC4)c3)n[nH]c12)N1CCC(F)(F)C1 (single isomer, unassigned) | CBL-B (Homo sapiens) | 64 nM
CC(c1nc(C(F)(F)F)cc2c(-c3cccc(C4(Cc5nncn5C)COC4)c3)n[nH]c12)N1CCC[C@H](C)C1 (single isomer, unassigned) [Example C19] | CBL-B (Homo sapiens) | 56 nM
C[C@H](N[C@H]1CCC(F)(F)C1)c1nc(C(F)(F)F)cc2c(-c3cccc(C4(Cc5nncn5C)COC4)c3)n[nH]c12 (single isomer, unassigned) | CBL-B (Homo sapiens) | 4 nM
C[C@H](CO)N[C@H](C)c1nc(C(F)(F)F)cc2c(-c3cccc([C@H](c4nncn4C)C4CCC4)c3)n[nH]c12 (single isomer, unassigned) | CBL-B (Homo sapiens) | 21 nM

From here, focus on the item given below.
What EC50 appears in the records for this compound with CBL-B (Homo sapiens)? C[C@H](N[C@@H]1CCOC1)c1nc(C(F)(F)F)cc2c(-c3cccc([C@H](c4nncn4C)C4CCC4)c3)n[nH]c12 (single isomer, unassigned) [Example D2]
42 nM

###

target system: CBL-B (residues 36-427) (Homo sapiens)
Construct: Purified CBL-B (residues 36-427) and C-CBL (residues 46-435) proteins from baculovirus-infected insect cells; made in house; host or cells: baculovirus-infected insect cells
assay: Ligand Displacement Assay (LDA), HTRF competitive binding against BODIPY-labeled fluorescent tracer, CBL-B
experimental conditions: geometric mean of the number of tests, read-out: CBL-B Ki (nM) GMean
Hi! Just check whether Ki is below 8 nM. Below gives MET, equal or above gives NOT MET.

Solved cases below.
compound | target system | class assignment
Cn1cnnc1[C@@H](c1cccc(-c2n[nH]c3c(CN4CC(F)C4)nc(C(F)(F)F)cc23)c1)C1CCC1 | CBL-B (residues 36-427) (Homo sapiens) | NOT MET
C[C@H](N[C@H]1CCOC1)c1nc(C(F)(F)F)cc2c(-c3cccc([C@H](c4nncn4C)C4CCC4)c3)n[nH]c12 (single isomer, unassigned) | CBL-B (residues 36-427) (Homo sapiens) | MET
Cn1cnnc1[C@@H](c1cccc(-c2n[nH]c3c(CN[C@@H]4CCOC4)nc(C(F)(F)F)cc23)c1)C1CCC1 | CBL-B (residues 36-427) (Homo sapiens) | NOT MET
Cn1cnnc1CC1(c2cccc(-c3n[nH]c4c(CN5CCOCC5)nc(C(F)(F)F)cc34)c2)COC1 | CBL-B (residues 36-427) (Homo sapiens) | NOT MET

Here's the next entry for you.
State whether 8 nM exceeds Ki recorded for C[C@@H](CO)c1nc(C(F)(F)F)cc2c(-c3cccc([C@H](c4nncn4C)C4CCC4)c3)n[nH]c12 (single isomer, unassigned) .
NOT MET

###

target system: C-CBL (Homo sapiens)
Construct: endogenous in cells; host or cells: Jurkat HiBit-IL2 reporter cells, CBL-B knocked out by CRISPR
assay: Jurkat HiBit-IL2 assay (CBL-B KO), reporter cell line expressing C-CBL only
Format: cell-based
experimental conditions: CBL-B KO (C-CBL only), anti-CD3/anti-CD28 stimulation 4 hours, geometric mean, Table 16a, read-out: CBL-B KO EC50 (nM) GMean
The compounds listed here are annotated with their EC50.

compound | EC50
CC(c1nc(C(F)(F)F)cc2c(-c3cccc(C4(Cc5nncn5C)COC4)c3)n[nH]c12)N1CCOCC1 (single isomer, unassigned) [Example C24] | 2970 nM
Cn1cnnc1CC1(c2cccc(-c3n[nH]c4c(CN[C@H]5CCC(F)(F)C5)nc(C(F)(F)F)cc34)c2)COC1 | 494 nM

From here, focus on the item given below.
Fill in the blank: the reported EC50 of Cn1cnnc1CC1(c2cccc(-c3n[nH]c4cnc(C(F)(F)F)cc34)c2)COC1 is ____.
> 9980 nM

###

target system: CBL-B (residues 36-427) (Homo sapiens)
Construct: Purified CBL-B (residues 36-427) and C-CBL (residues 46-435) proteins from baculovirus-infected insect cells; made in house; host or cells: baculovirus-infected insect cells
assay: Ligand Displacement Assay (LDA), HTRF competitive binding against BODIPY-labeled fluorescent tracer, CBL-B
experimental conditions: geometric mean of the number of tests, read-out: CBL-B Ki (nM) GMean
reported metric: Ki (nM)
Just the number please, in nM, no unit attached.

compound | Ki (nM)
Cn1cnnc1[C@@H](c1cccc(-c2n[nH]c3c(CN[C@@H]4CC[C@@H]4O)nc(C(F)(F)F)cc23)c1)C1CCC1 (single isomer, unassigned) | 0.8
Cn1cnnc1[C@@H](c1cccc(-c2n[nH]c3c(CN[C@H]4CC[C@H](O)C4)nc(C(F)(F)F)cc23)c1)C1CCC1 | 16.1
Cn1cnnc1CC1(c2cccc(-c3n[nH]c4c(CN5CCC5)nc(C(F)(F)F)cc34)c2)COC1 | 53

From here, focus on the item given below.
Fill in the blank: the reported Ki of Cn1cnnc1CC1(c2cccc(-c3n[nH]c4c(CN5CCNC(=O)C5)nc(C(F)(F)F)cc34)c2)COC1 is ____.
21.2
